Assay: Pharmacokinetic study in rats after intragastric administration
Type: in vivo
Conditions: both sexes, rat, plasma, po, SD rats, 2 mg/kg, read-out: Residence time MRT
Method: The drug concentrations in the plasma of the test animals (rats) at different time points after intragastric administration of the compound of Example 1 were determined by an LC/MS/MS method. The pharmacokinetic behavior in rats of the compound disclosed herein was studied and its pharmacokinetic profile was evaluated. 12 healthy adult SD rats (half male and half female; purchased from Vital River) were evenly divided into 3 groups of 4. […]
valueKind: MRT (h)

{"compound": "C[C@@H]1COCCN1c1cc(C(C)(C)C#N)c2c(n1)c(-c1cc[nH]n1)nn2C [Example 1]", "valueKind": "MRT", "measurement": 3.08}

---

Purity (%) by entry:
Assay: Long-term/accelerated stability test of crystalline salt forms in sealed aluminum foil bags
Type: physicochemical
Conditions: 40° C./75% RH, 1 month

{"molecule": "CC1COCCN1c1cc(C(C)(C)C#N)c2c(n1)c(-c1cc[nH]n1)nn2C.CC1COCCN1c1cc(C(C)(C)C#N)c2c(n1)c(-c1cc[nH]n1)nn2C.O=C(O)C(=O)O (centres unmarked) [Crystalline form a of oxalate]", "Purity (%)": 99.40}
{"molecule": "CC1COCCN1c1cc(C(C)(C)C#N)c2c(n1)c(-c1cc[nH]n1)nn2C.CS(=O)(=O)O (stereo not drawn) [Crystalline form α of mesylate]", "Purity (%)": 97.00}
{"molecule": "CC1COCCN1c1cc(C(C)(C)C#N)c2c(n1)c(-c1cc[nH]n1)nn2C.O=C(O)C=CC(=O)O (centres unmarked) [Crystalline form I of maleate]", "Purity (%)": 98.59}
{"molecule": "CC1COCCN1c1cc(C(C)(C)C#N)c2c(n1)c(-c1cc[nH]n1)nn2C.O=S(=O)(O)O (stereo not drawn) [Crystalline form α of sulfate]", "Purity (%)": 89.37}
{"molecule": "CC1COCCN1c1cc(C(C)(C)C#N)c2c(n1)c(-c1cc[nH]n1)nn2C.Cc1ccc(S(=O)(=O)O)cc1 (centres unmarked) [Crystalline form a of p-toluenesulfonate]", "Purity (%)": 97.31}

---

Test: Long-term/accelerated stability test of crystalline salt forms in sealed aluminum foil bags
Assay type: physicochemical
Conditions: −20° C., 2 months

{"compound": "CC1COCCN1c1cc(C(C)(C)C#N)c2c(n1)c(-c1cc[nH]n1)nn2C.O=C(O)C=CC(=O)O (centres unmarked) [Crystalline form I of maleate]", "uom": "%", "Purity (%)": 99.00}
{"compound": "CC1COCCN1c1cc(C(C)(C)C#N)c2c(n1)c(-c1cc[nH]n1)nn2C.CS(=O)(=O)O (stereo not drawn) [Crystalline form α of mesylate]", "uom": "%", "Purity (%)": 98.69}
{"compound": "CC1COCCN1c1cc(C(C)(C)C#N)c2c(n1)c(-c1cc[nH]n1)nn2C.Cc1ccc(S(=O)(=O)O)cc1 (centres unmarked) [Crystalline form a of p-toluenesulfonate]", "uom": "%", "Purity (%)": 98.46}
{"compound": "CC1COCCN1c1cc(C(C)(C)C#N)c2c(n1)c(-c1cc[nH]n1)nn2C.CC1COCCN1c1cc(C(C)(C)C#N)c2c(n1)c(-c1cc[nH]n1)nn2C.O=C(O)C(=O)O (centres unmarked) [Crystalline form a of oxalate]", "uom": "%", "Purity (%)": 99.51}
{"compound": "CC1COCCN1c1cc(C(C)(C)C#N)c2c(n1)c(-c1cc[nH]n1)nn2C.O=S(=O)(O)O (stereo not drawn) [Crystalline form α of sulfate]", "uom": "%", "Purity (%)": 97.56}
